Measured insulin secretion stimulation accompanies every entry in the list below.
- method: stimulators of insulin release from INS-1E, primary screen, cell-based, 5 mM glucose, NPC library (AID 1117329); note: reference of the scale not given here
- condition-details: rat INS-1E insulin secretion, at 10 µM, active compounds read high

{"structure-smiles-string": "NS(=O)(=O)c1cc2c(cc1Cl)NCNS2(=O)=O", "unit-spec": "%", "insulin secretion stimulation": -1.9}
{"structure-smiles-string": "Oc1ccccc1-c1nnco1", "unit-spec": "%", "insulin secretion stimulation": 3.2}
{"structure-smiles-string": "O=C(OCC1(COC(=O)c2cccnc2)CCCC(COC(=O)c2cccnc2)(COC(=O)c2cccnc2)C1O)c1cccnc1", "unit-spec": "%", "insulin secretion stimulation": 7.7}
{"structure-smiles-string": "c1ccc2sc(SSc3nc4ccccc4s3)nc2c1", "unit-spec": "%", "insulin secretion stimulation": -0.6}
{"structure-smiles-string": "CCc1oc2ccccc2c1C(=O)c1cc(I)c(O)c(I)c1", "unit-spec": "%", "insulin secretion stimulation": -1.6}
{"structure-smiles-string": "N=C(N)c1ccc(OCCCCCOc2ccc(C(=N)N)cc2)cc1", "unit-spec": "%", "insulin secretion stimulation": 2.3}
